Target: T1, TNFR2-His (Sino Biological, 10417-H08H, NP_001057.1 Met1-Asp257, with multi-histidine tag expressed on … (human, UniProt P20333 23-257))
T1 construct: range 1-257; Bought protein; also called recombinant human TNFR2 protein; TNFR2-His antigen; not shown: C-terminal multi-histidine tag
T1 sequence (looked up): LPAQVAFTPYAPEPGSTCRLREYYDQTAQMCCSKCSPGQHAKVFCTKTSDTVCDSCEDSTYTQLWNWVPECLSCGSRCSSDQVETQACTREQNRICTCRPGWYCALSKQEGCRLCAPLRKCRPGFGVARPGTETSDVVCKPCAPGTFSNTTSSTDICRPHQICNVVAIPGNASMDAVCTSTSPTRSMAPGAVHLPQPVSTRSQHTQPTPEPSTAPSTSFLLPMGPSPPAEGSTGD
Assay: BLI, antibody captured on AHC probe, TNFR2-His in solution
Record form. Attribute: koff. Fill in for each entry.
Report as: number unit

Recorded koff for 11G2huVH4 + huVL3(P07274) (antibody, V domains shown, Humanized 11G2) VH: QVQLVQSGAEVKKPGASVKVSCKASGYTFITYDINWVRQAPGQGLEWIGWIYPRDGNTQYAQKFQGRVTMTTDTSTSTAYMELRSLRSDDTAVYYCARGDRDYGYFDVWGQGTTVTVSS VL: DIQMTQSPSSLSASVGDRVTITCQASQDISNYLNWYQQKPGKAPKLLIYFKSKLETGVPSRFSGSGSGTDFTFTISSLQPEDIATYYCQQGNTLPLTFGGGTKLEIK , please?
0.00511 s⁻¹

Recorded koff for 11G2huVH3 + huVL2(P07268) (antibody, V domains shown, Humanized 11G2) VH: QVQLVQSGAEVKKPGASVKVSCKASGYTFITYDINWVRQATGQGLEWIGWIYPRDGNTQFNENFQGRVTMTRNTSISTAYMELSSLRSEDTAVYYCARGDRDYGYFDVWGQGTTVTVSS VL: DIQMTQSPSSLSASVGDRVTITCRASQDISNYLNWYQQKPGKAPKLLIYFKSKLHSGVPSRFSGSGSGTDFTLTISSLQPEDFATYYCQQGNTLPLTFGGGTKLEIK , please?
0.0022 s⁻¹
